Some compounds, each annotated with its measured IC50.
Test system: L1210
Assay: Antiproliferative activity was determined against murine leukemia cells (L1210)
Assay type: functional, cell-based
Conditions Used: Mus musculus
Could you give me the number in µM? Just the number is fine.

Worked cases, answers included:
| Compound | Target Or Test System | Endpoint Unit | IC50 |
| --- | --- | --- | --- |
| CSS[C@H]1C[C@H](n2cc(C)c(=O)[nH]c2=O)O[C@@H]1CO | L1210 | µM | 37 |
| Nc1ccn([C@@H]2O[C@H](CO)C(O)[C@@H]2S)c(=O)n1 (some centres not stated) | L1210 | µM | 670 |
| CSS[C@H]1C(O)[C@@H](CO)O[C@H]1n1ccc(N)nc1=O (some centres not stated) | L1210 | µM | 350 |

// switching to the query compound
Quick check: IC50 of CSS[C@H]1C(O)[C@@H](CO)O[C@H]1n1ccc(=O)[nH]c1=O (some centres not stated) ? 320

* * *

System: L1210
Assay: Antiproliferative activity was determined against murine leukemia cells (L1210)
Assay type: functional, cell-based
Conditions Used: Mus musculus
Some compounds, each annotated with its measured IC50.

Worked cases, answers included:
| Compound | IC50 |
| --- | --- |
| Cc1cn([C@H]2C[C@H](S)[C@@H](CO)O2)c(=O)[nH]c1=O | > 770 µM |
| C[C@H](Cn1cnc2c(N)ncnc21)OCP(=O)(O)O [TENOFOVIR ANHYDROUS] | > 350 µM |

// switching to the query compound
Quick check: IC50 of Cc1cn([C@H]2C[C@H](SS[C@H]3C[C@H](n4cc(C)c(O)nc4=O)O[C@@H]3CO)[C@@H](CO)O2)c(=O)nc1O ? > 390 µM
